The reported measurements were obtained from patent US12509460B2.

For each entry below, report its pEC50 value.
- Tested on: mHTT protein in GM04724 (CAG 70/20) Huntington's disease patient lymphoblast cells
- assay-overview: mHTT protein assay, 2B7-MW1 assay via Mesoscale Discovery (MSD)
- Format: cell-based, human
- condition-info: GM04724 Huntington's disease patient lymphoblasts
- Experimental: Example A10: mHTT Protein Assay Compounds are tested on GM04724 (CAG 70/20) Huntington's disease patient lymphoblast cells at doses ranging from 10 μM to 0.6 nM. 4,500 cells/well are seeded in 384 well plates. […] Compounds are incubated for 48 hours. mHTT protein levels are assessed by the 2B7-MW1 assay via Mesoscale Discovery (MSD) as previously reported (Macdonald et al., 2014). […] The viability readout is carried out by CTG according to the manufacturer's instructions.
pEC50: −log10 of the molar value.

[ask] Given the entry CN(c1ccc(-c2ccc(-c3cnn(C)c3)cc2O)nn1)[C@@H]1C[C@H]2CCC[C@H](N2)[C@H]1F [Compound 14A] , report its measured pEC50.
[reply] 7.30 to 7.80

[ask] Could you tell me which pEC50 is on file for CN(c1ccc(-c2cc3cnccc3cc2O)nn1)[C@@H]1C[C@H]2CC[C@H](N2)[C@@H]1F (single isomer, unassigned) [Compound 7B] ?
[reply] 7.00 to 7.29

[ask] Report pEC50 for CN(c1ccc(-c2cc3ncccc3cc2O)nn1)[C@H]1C[C@@H]2CC(F)(F)[C@H](C1)N2 [Compound 46B] please.
[reply] 6.30 to 7.00

[ask] Record request: pEC50 value, item CN(c1ccc(-c2ccc(-c3cnn(C)c3)cc2O)nn1)[C@H]1C[C@@H]2CCC[C@@H](N2)[C@H]1F [Compound 15B]
[reply] 7.82 to 11.00

[ask] Which pEC50 reading was recorded for the compound CN(c1ccc(-c2cc3ncccc3cc2O)nn1)[C@H]1C[C@@H]2CCC[C@@H](N2)[C@H]1F [Compound 78B] ?
[reply] 7.82 to 11.00

[ask] Sample CNC(=O)c1cc(O)c(-c2ccc(N(C)[C@@H]3C[C@H]4CC[C@H](N4)[C@@H]3F)nn2)cc1F [Compound 47A] — what was its pEC50?
[reply] 6.30 to 7.00

[ask] Quick one: pEC50 for CN(c1ccc(-c2ccc(-n3ccnc3)cc2O)nn1)[C@H]1C[C@@H]2CC[C@@H](N2)[C@H]1F [Compound 4B] ?
[reply] 7.82 to 11.00
